System: OVCAR-4 ovarian
Experiment: NCI tumour cell line growth inhibition, 48 h
Reported TGI by item:

{"columns": ["COMPOUND", "TGI"],
 "data": [
  ["c1cc(N2CCN(c3ccc(C4=NCCN4)cc3)CC2)ccc1C1=NCCN1", "> 100 µM"],
  ["COc1ccc(C2CC(c3ccc4ccccc4c3O)=NN2)cc1OC (stereo unspecified)", "> 100 µM"],
  ["CCCCCOC(=O)C(=O)Nc1n[nH]nc1C(N)=O", "> 100 µM"],
  ["COC(=O)C(C(=O)C(=O)Nc1ccc(Br)cc1)c1nc2ccc(Cl)cc2[nH]c1=O (stereo unspecified)", "> 71.3 µM"],
  ["O=CCOCc1cc2c(cc1Br)OCO2", "45.8 µM"],
  ["CC(C)OP(=O)(CCCCCCCCC/C=C/c1ccc2c(c1)OCCOCCOCCOCCO2)OC(C)C", "16.2 µM"],
  ["CCCCSSC(=S)N(CC)CC", "32.3 µM"],
  ["C=CCOC1=CC(=O)c2ccccc2C1=O", "2.95 µM"],
  ["CC1CN=C(N(C)C(=O)Nc2ccc(Cl)cc2)S1 (stereo unspecified)", "> 100 µM"],
  ["O=C(Nc1cccc(-n2cc(-c3ccncc3)c(-c3ccc(Cl)c(O)c3)n2)c1)Nc1cccc(C(F)(F)F)c1", "> 32.5 µM"],
  ["CCN(CC)c1ccc2cc(C(=O)Nc3ccccc3OC)c(=N)oc2c1", "> 100 µM"]
]}

###

System: RXF 393 renal
Experiment: NCI tumour cell line growth inhibition, 48 h
Reported TGI by item:

{"columns": ["COMPOUND", "OPERATOR", "TGI [µM]"],
 "data": [
  ["Nc1nc2cc(-c3ccc4ncc(C(=O)N5CCOCC5)n4c3)ccc2o1", "=", 36.7],
  ["Fc1cc(-c2cc(-c3ccccc3)n[nH]2)c(Cl)cc1Cl", ">", 100],
  ["CN=c1oc2ccccc2cc1C(N)=O", ">", 100],
  ["C=CCOC1=CC(=O)c2ccccc2C1=O", "=", 6.03],
  ["COc1cccc(-n2ncc3c(N/N=C/c4ccc(F)cc4)ncnc32)c1", "=", 24.9],
  ["CCC(C)NC1=C(NC(C)=O)C(=O)c2ccccc2C1=O (stereo unspecified)", ">", 75],
  ["CCN(CC)c1ncnc2c1ncn2CCNC(CO)(CO)CO", ">", 100],
  ["CS(=O)(=O)Nc1ccc(Nc2cc[nH]c3ccc4nccc4c23)cc1", "=", 30.2],
  ["O=C(Nc1cccc(-n2cc(-c3ccncc3)c(-c3ccc(Cl)c(O)c3)n2)c1)Nc1cccc(C(F)(F)F)c1", "=", 12],
  ["COc1ccc(N2C(=O)C3c4[nH]c5ccc(OC)cc5c4C4CCC(C(C)C)CC4C3C2=O)cc1 (stereo unspecified)", ">", 100],
  ["C=C(C)C[C@H](Sc1nc2ccccc2s1)[C@H](C)O", ">", 100]
]}

###

Test system: NCI-H460 lung
Test: NCI tumour cell line growth inhibition, 48 h
Where a SMILES comes first, the peptide text is derived from it. The star is where a group is joined. CH2Cl = ClC*
READOUT NAME: TGI

{"columns": ["MOLECULE", "RESULT VALUE"],
 "data": [
  ["CCP(=S)(CC)CCl", "> 100 µM"],
  ["CC(=O)NC(CC(C)C)C(=O)NC(Cc1ccccc1)C(=O)CCl (stereo not drawn) (Ac-Leu-Phe-CH2Cl; configuration not given here)", "43.3 µM"],
  ["O=C(O)CCC(=O)C(=O)O", "> 100 µM"],
  ["C=C1C[C@]23CC[C@@H]4C(CO)(CO)CC(=O)C[C@]4(C)[C@@H]2CC[C@H]1C3", "> 100 µM"],
  ["CC(C)OP(=O)(CCCCCCCCC/C=C/c1ccc2c(c1)OCCOCCOCCOCCO2)OC(C)C", "7.37 µM"],
  ["Cn1cc(C2=C(c3cn(C)c4cc(C(=O)O)ccc34)C(=O)NC2=O)c2ccccc21", "> 25 µM"],
  ["Cn1c([N+](=O)[O-])cnc1CN1CCN(CCO)CC1", "> 100 µM"],
  ["CC1CCC(C(C)C2C(O)CC3C4CC=C5CC(O)CCC5(C)C4CCC32C)NC1 (stereo unspecified)", "> 100 µM"],
  ["Cc1ccc2c(NCCCN(C)C)c3c(C)nn(C)c3nc2c1", "10.2 µM"],
  ["O=NNc1ccc(S(=O)c2ccccc2)cn1 (stereo unspecified)", "> 100 µM"],
  ["Cn1c2ccccc2c(=NNc2ccc(S(N)(=O)=O)cc2)c2ccccc21", "34.3 µM"]
]}
